MEASUREMENT_DESCRIPTION: Stability in human blood plasma
Type: in vitro ADME
RUN_PARAMETERS: K3EDTA human blood plasma, after 48 h; read-out: still detectable in human blood plasma
Protocol: Figure 12 Stability assay of TF2D-5 and TF2D-5a using different simulated human body fluids. (A) Stability of compounds in simulated gastric fluid (SGF). The simulated gastric fluid consisted of 2 mg/mL sodium chloride, 3.2 mg/mL pepsin, and 80 mM HCl; pH 1. (B) Stability of TF2D-5 and TF2D-5a in simulated intestinal fluid (SIF). Simulated intestinal fluid consisted of 6.8 mg/mL potassium dihydrogen phosphate, 10 mg/mL pancreas powder, and 15.4 mM NaOH; pH 6.8. […]
Non-standard residues stand in square brackets, D forms with d. Residues, ends and D or L forms follow the SMILES beside them.
PARAMETER: remaining at 48 h (%)

COMPOUND	PARAMETER	SCALE_UNIT	NUMBER
CC[C@@H](C)[C@@H](NC(=O)[C@@H](Cc1c[nH]cn1)NC(=O)CNC(=O)CNC(=O)[C@H]1CCCN1C(=O)[C@H](NC(=O)[C@@H](CCCCN)NC(=O)[C@@H](Cc1ccccc1)NC(=O)[C@@H](CC(C)C)NC(=O)[C@H](NC(=O)[C@@H](CCC(N)=O)NC(=O)[C@@H](Cc1ccc(O)cc1)NC(=O)CNC(=O)CNC(=O)[C@H](N)CC(=O)O)[C@H](C)CC)[C@H](C)CC)C(=O)N[C@H](Cc1c[nH]cn1)C(N)=O [TF2D-5] (H-[dD]GG[dY][dQ][dI][dL][dF][dK][dI][dP]GG[dH][dI][dH]-NH2)	remaining at 48 h	%	97.4

----------
MEASUREMENT_DESCRIPTION: Stability in human liver microsomes
Type: in vitro ADME
RUN_PARAMETERS: 6 mg/mL protein, 1.3 mM NADPH with regenerating system, pH 7.4, after 24 h, read-out: still unmetabolized in human liver microsomes
Non-standard residues stand in square brackets, D forms with d. Residues, ends and D or L forms follow the SMILES beside them.
PARAMETER: remaining at 24 h (%)

MOLECULE	PARAMETER	NUMBER
CC[C@@H](C)[C@@H](NC(=O)[C@@H](Cc1c[nH]cn1)NC(=O)CNC(=O)CNC(=O)[C@H]1CCCN1C(=O)[C@H](NC(=O)[C@@H](CCCCN)NC(=O)[C@@H](Cc1ccccc1)NC(=O)[C@@H](CC(C)C)NC(=O)[C@H](NC(=O)[C@@H](CCC(N)=O)NC(=O)[C@@H](Cc1ccc(O)cc1)NC(=O)CNC(=O)CNC(=O)[C@H](N)CC(=O)O)[C@H](C)CC)[C@H](C)CC)C(=O)N[C@H](Cc1c[nH]cn1)C(N)=O [TF2D-5] (H-[dD]GG[dY][dQ][dI][dL][dF][dK][dI][dP]GG[dH][dI][dH]-NH2)	remaining at 24 h	3.7
